# test_summary: Inhibition of quorum sensing system in Pseudomonas aeruginosa PAO1 assessed as inhibition of pqsR expression incubated for 4 hrs by RT-PCR analysis

smiles_entry: Clc1ccc2c(NCCCCCCCCNCc3cc4ccccc4s3)ccnc2c1
readout_units: µM
IC50: 30
//
smiles_entry: Clc1ccc2c(NCCCCCCCCNCc3cc4ccccc4o3)ccnc2c1
readout_units: µM
IC50: 25

----------
Measured inhibition, listed per entry.
# Tested on: Pseudomonas aeruginosa
# test_summary: Inhibition of Pseudomonas aeruginosa MH602 harboring PlasB::gfp(ASV) reporter assessed as decrease in GFP expression at 250 uM incubated for 22 hrs by fluorescence microplate reader analysis

smiles_entry: Cc1ccc2c(c1)C(=O)C(=O)NCc1cnnn1CC(=O)Nc1ccc(C)cc1C(=O)C(=O)NCc1cnnn1CC(=O)N2
target_entity: Pseudomonas aeruginosa
readout_units: %
inhibition: 58.6
//
smiles_entry: O=C1C(=O)N(C(=O)CCl)c2ccc([N+](=O)[O-])cc21
target_entity: Pseudomonas aeruginosa
readout_units: %
inhibition: 57.3
//
smiles_entry: O=C1Cn2nncc2CNC(=O)C(=O)c2cc(F)ccc2NC(=O)Cn2nncc2CNC(=O)C(=O)c2cc(F)ccc2N1
target_entity: Pseudomonas aeruginosa
readout_units: %
inhibition: 46
//
smiles_entry: O=C1C(=O)N(C(=O)CCl)c2ccccc21
target_entity: Pseudomonas aeruginosa
readout_units: %
inhibition: 60.1
//
smiles_entry: C#CNC(=O)C(=O)c1cc(C)ccc1NC(=O)CCl
target_entity: Pseudomonas aeruginosa
readout_units: %
inhibition: 36.9
//
smiles_entry: O=C1Cn2nncc2CNC(=O)C(=O)c2ccccc2NC(=O)Cn2nncc2CNC(=O)C(=O)c2ccccc2N1
target_entity: Pseudomonas aeruginosa
readout_units: %
inhibition: 74
//
smiles_entry: C#CNC(=O)C(=O)c1cc(Br)ccc1NC(=O)CCl
target_entity: Pseudomonas aeruginosa
readout_units: %
inhibition: 31.8
//
smiles_entry: Cc1ccc2c(c1)C(=O)C(=O)N2C(=O)CCl
target_entity: Pseudomonas aeruginosa
readout_units: %
inhibition: 57.4

----------
# Test system: Pseudomonas aeruginosa
# test_summary: Inhibition of quorum sensing system in Pseudomonas aeruginosa MH602 PlasB-gfp(ASV) assessed as inhibition of green fluorescent protein production at 125 uM for 20 hrs by fluorescence assay
parameter: inhibition (%)

smiles_entry: CCCCCc1cn(CC(=O)Nc2nc3ccccc3[nH]2)nn1
target_entity: Pseudomonas aeruginosa
quantitative_readout: 34

smiles_entry: COc1ccc(-c2cn(CC(=O)Nc3nc4ccccc4[nH]3)nn2)cc1
target_entity: Pseudomonas aeruginosa
quantitative_readout: 5.16

smiles_entry: CCCCCCCc1cn(CC(=O)Nc2nc3ccccc3[nH]2)nn1
target_entity: Pseudomonas aeruginosa
quantitative_readout: 34

smiles_entry: O=C(Cn1cc(-c2ccc(Cl)cc2)nn1)Nc1nc2ccccc2[nH]1
target_entity: Pseudomonas aeruginosa
quantitative_readout: 60.5

smiles_entry: CCc1cn(CC(=O)Nc2nc3ccccc3[nH]2)nn1
target_entity: Pseudomonas aeruginosa
quantitative_readout: 34

smiles_entry: CCCc1cn(CC(=O)Nc2nc3ccccc3[nH]2)nn1
target_entity: Pseudomonas aeruginosa
quantitative_readout: 34

----------
# reported pIC50; entries follow
# target_entity: Transcriptional activator protein LasR (Pseudomonas aeruginosa (strain ATCC 15692 / PAO1 / 1C / PRS 101 / LMG12228), UniProt P25084)
# Sequence (P25084 whole entry): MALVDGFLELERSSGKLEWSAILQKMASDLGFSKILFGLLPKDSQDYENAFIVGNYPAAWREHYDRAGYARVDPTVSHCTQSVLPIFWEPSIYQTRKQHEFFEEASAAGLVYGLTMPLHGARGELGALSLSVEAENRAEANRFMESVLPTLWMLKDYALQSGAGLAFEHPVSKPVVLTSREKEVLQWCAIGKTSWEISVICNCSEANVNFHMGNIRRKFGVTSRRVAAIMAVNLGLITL
# test_summary: Antagonist activity against LasR-mediated quorum sensing system in Pseudomonas aeruginosa PAO1 by spectrophotometric assay
pIC50: −log10 of the molar value.

smiles_entry: O=C(CNc1ccc(C(=O)/C=C/c2ccc(F)cc2)cc1)N[C@H]1CCOC1=O
pIC50: 4.33
--
smiles_entry: O=C(CNc1ccc(C(=O)/C=C/c2ccc(Br)cc2F)cc1)N[C@H]1CCOC1=O
pIC50: 4.58
--
smiles_entry: O=C(CNc1ccc(C(=O)/C=C/c2ccc(Br)cc2)cc1)N[C@H]1CCOC1=O
pIC50: 4.33
--
smiles_entry: CC1=C(Br)/C(=C(\C)Br)OC1=O
pIC50: 4.76
--
smiles_entry: O=C(CNc1ccc(C(=O)/C=C/c2ccccc2)cc1)N[C@H]1CCOC1=O
pIC50: 4.20
--
smiles_entry: O=C(CNc1ccc(C(=O)/C=C/c2ccccc2Br)cc1)N[C@H]1CCOC1=O
pIC50: 4.42

----------
# Tested on: Escherichia coli
# test_summary: Inhibition of Escherichia coli DH5alpha LasR co-expressing LasR beta-galactosidase reporter assessed as inhibition of beta-galactosidase activity at 100 uM incubated for 2 hrs by spectrophotometric assay
Reported inhibition values for the following compounds.
parameter: inhibition (%)

smiles_entry: O=C(Cn1cc(C2CCCC2)nn1)N[C@H]1CCOC1=O
parameter: inhibition
quantitative_readout: 70

smiles_entry: CCCCCc1cn(CC(=O)N[C@H]2CCOC2=O)nn1
parameter: inhibition
quantitative_readout: 55

smiles_entry: CCCCc1cn(CC(=O)N[C@H]2CCOC2=O)nn1
parameter: inhibition
quantitative_readout: 75

smiles_entry: O=C(Cn1cc(CC2CCCCC2)nn1)N[C@H]1CCOC1=O
parameter: inhibition
quantitative_readout: 14

smiles_entry: O=C(Cn1cc(C2CCCCC2)nn1)N[C@H]1CCOC1=O
parameter: inhibition
quantitative_readout: 72

smiles_entry: O=C(Cn1cc(-c2cc(F)cc(F)c2)nn1)N[C@H]1CCOC1=O
parameter: inhibition
quantitative_readout: 71

smiles_entry: O=C(Cn1cc(-c2ccccc2)nn1)N[C@H]1CCOC1=O
parameter: inhibition
quantitative_readout: 89.6

smiles_entry: Cc1ccc(-n2cc(CCC(=O)N[C@H]3CCOC3=O)nn2)cc1
parameter: inhibition
quantitative_readout: 72

smiles_entry: O=C(N[C@H]1CCOC1=O)c1ccc(-n2cc(CSc3ccccc3)nn2)cc1
parameter: inhibition
quantitative_readout: 62

smiles_entry: O=C(Cn1cc(C2CC2)nn1)N[C@H]1CCOC1=O
parameter: inhibition
quantitative_readout: 52

smiles_entry: COc1ccc(-n2cc(CCC(=O)N[C@H]3CCOC3=O)nn2)cc1
parameter: inhibition
quantitative_readout: 75

----------
# Tested on: Pseudomonas aeruginosa
# test_summary: Inhibition of quorum sensing system in Pseudomonas aeruginosa MH602 PlasB-gfp(ASV) assessed as inhibition of green fluorescent protein production at 62.5 uM for 20 hrs by fluorescence assay
parameter: inhibition (%)

smiles_entry: O=C(Cn1cc(-c2ccc(Cl)cc2)nn1)Nc1nc2ccccc2[nH]1
readout_units: %
quantitative_readout: 52.9
--
smiles_entry: CCCCCCCc1cn(CC(=O)Nc2nc3ccccc3[nH]2)nn1
readout_units: %
quantitative_readout: 25
--
smiles_entry: CCCc1cn(CC(=O)Nc2nc3ccccc3[nH]2)nn1
readout_units: %
quantitative_readout: 25
--
smiles_entry: CCc1cn(CC(=O)Nc2nc3ccccc3[nH]2)nn1
readout_units: %
quantitative_readout: 25
--
smiles_entry: CCCCCc1cn(CC(=O)Nc2nc3ccccc3[nH]2)nn1
readout_units: %
quantitative_readout: 25

----------
# Test system: Pseudomonas aeruginosa
# test_summary: Inhibition of quorum sensing system in Pseudomonas aeruginosa MH602 PlasB-gfp(ASV) assessed as inhibition of green fluorescent protein production at 62.5 to 250 uM for 20 hrs by fluorescence assay
# condition_set: dose 62.5-250 µM
// reported inhibition for each item listed

smiles_entry: O=C(Cn1cc(-c2ccc(C(F)(F)F)cc2)nn1)Nc1nc2ccccc2[nH]1
target_entity: Pseudomonas aeruginosa
inhibition (%): 57.5

smiles_entry: O=C(Cn1cc(-c2ccc([N+](=O)[O-])cc2)nn1)Nc1nc2ccccc2[nH]1
target_entity: Pseudomonas aeruginosa
inhibition (%): 63.7

smiles_entry: Cc1ccc(-c2cn(CC(=O)Nc3nc4ccccc4[nH]3)nn2)cc1
target_entity: Pseudomonas aeruginosa
inhibition (%): 32

smiles_entry: O=C(Cn1cc(-c2ccc(O)cc2)nn1)Nc1nc2ccccc2[nH]1
target_entity: Pseudomonas aeruginosa
inhibition (%): 34

smiles_entry: O=C(Cn1cc(-c2cccc([N+](=O)[O-])c2)nn1)Nc1nc2ccccc2[nH]1
target_entity: Pseudomonas aeruginosa
inhibition (%): 28.2

smiles_entry: O=C(Cn1cc(-c2ccc(F)cc2)nn1)Nc1nc2ccccc2[nH]1
target_entity: Pseudomonas aeruginosa
inhibition (%): 49

smiles_entry: O=C(Cn1cc(-c2ccc(Br)cc2)nn1)Nc1nc2ccccc2[nH]1
target_entity: Pseudomonas aeruginosa
inhibition (%): 45.7

smiles_entry: Cc1cc2nc(NC(=O)Cn3cc(-c4ccc(C(F)(F)F)cc4)nn3)[nH]c2cc1C
target_entity: Pseudomonas aeruginosa
inhibition (%): 36.1

----------
# test_summary: Inhibition of quorum sensing system in Pseudomonas aeruginosa PAO1 assessed as inhibition of pyocyanin production at 15 uM incubated for 12 hrs by spectrophotometric assay
Please note: t applies when inhibition is 30% or greater, and f applies otherwise.

smiles_entry: CC1=C(Br)/C(=C(\C)Br)OC1=O
classification: t
//
smiles_entry: O=C(CCSc1ccc(Cl)cc1)N[C@H]1CCOC1=O
classification: f
//
smiles_entry: Cc1cccc(NC(=O)NC(=O)CSC(=S)N[C@H]2CCOC2=O)c1
classification: t
//
smiles_entry: O=C(CSC(=S)N[C@H]1CCOC1=O)NC(=O)Nc1cccc2ccccc12
classification: t
//
smiles_entry: O=C(CSc1nc2ccccc2s1)N[C@H]1CCOC1=O
classification: f
//
smiles_entry: O=C(CCSc1nc2ccccc2s1)N[C@H]1CCOC1=O
classification: f
